test: Inhibition of methicillin-resistant Staphylococcus aureus USA300 ClpP using Suc-LY-AMC as fluorescent substrate preincubated for 1 hr followed by substrate addition and measured after 1 hr by FRET assay
Experimental Endpoint: IC50
The answer consists of two parts: a number and, after it, its unit.

Lookup: Sample `COc1ccc(-c2oc3cc(O)cc(O)c3c(=O)c2O)cc1O` — what was its IC50?
Found: 49.7 µM

Sourced from ChEMBL document CHEMBL5120923
